Data provenance: the supplement of paper PMC9112550

So I've got a bunch of sequences here, and I need their shrunken log2 fold change values.
System: Escherichia coli TOP10;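 also: peptides expressed intracellularly from a pBAD plasmid library in pooled LB shake-flask culture, induced with 0.3% L-arabinose, DNA abundance read by NGS, three biological replicates, DESeq2 with apeglm shrinkage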
Experiment: shrunken log2 fold change of peptide-encoding DNA abundance (4.5 h post-induction vs induction); higher = less antimicrobial activity (less host growth inhibition)
Conditions: time post-induction: 4.5 h; library: site-saturation at positions 5, 18, 19, 20
Give bare numbers.

| Residues | shrunken log2 fold change |
| --- | --- |
| RRIRSRPPRLPRPRPRPLKMPRP | 0.127 |
| RRIRERPPRLPRPRPRPSCKPRP | -0.277 |
| RRIRWRPPRLPRPRPRPYTFPRP | 0.0563 |
| RRIRCRPPRLPRPRPRPNLFPRP | -0.932 |
| RRIRQRPPRLPRPRPRPPWFPRP | -0.018 |

Report shrunken log2 fold change for each item below.
1. RRIRDRPPRLPRPRPRPEMLPRP
2. RRIRCRPPRLPRPRPRPATEPRP
3. RRIRCRPPRLPRPRPRPEKIPRP
4. RRIRDRPPRLPRPRPRPATDPRP

[1.4, 0.309, 0.117, 0.0254]

Report shrunken log2 fold change for each item below.
1. RRIRIRPPRLPRPRPRPYKTPRP
2. RRIRHRPPRLPRPRPRPVKQPRP
3. RRIRFRPPRLPRPRPRPYLMPRP
4. RRIRHRPPRLPRPRPRPSSEPRP
5. RRIRNRPPRLPRPRPRPGCWPRP

1: -0.0104; 2: -0.0982; 3: -0.687; 4: -0.102; 5: 0.55
